# Assay overview: gradient 5% acetonitrile 3 min, to 50% in 2 min, to 85% in 15 min, held 3 min, 100 µL/min
# Stated conditions: column: Zorbax Extend-C18 2.1 x 50 mm; eluents: water / acetonitrile, 0.1% formic acid
Reported property: RP-LC retention time (s)

Check out these entries, answers already filled in.
Cc1ccc(CCNC(=O)c2cc3sccc3n2Cc2ccc(F)cc2)cc1: 702
Cn1cc(-c2nc(C(=O)NCc3ccc(F)c(Cl)c3)cs2)c2cccnc21: 975
O=C(Cn1c(C2CCCO2)nc2ccccc21)Nc1ccccc1 (stereo unspecified): 638

A: Cc1ccc(NS(=O)(=O)c2cn(C(C)C)c3ncccc23)cc1F
B: Cc1cccc2nnc(N3CCN(C(=O)c4cccnc4)CC3)n12
Of A and B , which carries the smaller reported RP-LC retention time figure? Bench note: the answer is the label of the chosen record. B
(B: 515 s, A: 861 s)

I: O=C(c1csc(-c2ccc(N3CCCC3)nc2)n1)N1CCN(c2ccccn2)CC1
II: CC(C)NC(=O)CSc1nccnc1N1CCN(c2ccccc2)CC1
III: CCC(C)n1c(=O)c2ccccc2n(Cc2nc(-c3cccc(Br)c3)no2)c1=O (stereo unspecified)
Sort low-to-high on RP-LC retention time, please. Please, when replying, give the labels in the order that was requested. I, II, III
(I: 566 s, II: 867 s, III: 1290 s)

P: N#Cc1c(N)nc(SCC(=O)c2ccc(Br)cc2)c(C#N)c1-c1ccccc1
Q: O=C(C1CC(=O)N(c2ccc3c(c2)CCN3C(=O)C2CC2)C1)N1CCCC1 (stereo unspecified)
Of P and Q , which carries the smaller reported RP-LC retention time figure? Bench note: the answer is the label of the chosen record. Q
(Q: 647 s, P: 997 s)

###

# Assay overview: gradient 5% acetonitrile 3 min, to 50% in 2 min, to 85% in 15 min, held 3 min, 100 µL/min
# Stated conditions: column: Zorbax Extend-C18 2.1 x 50 mm; eluents: water / acetonitrile, 0.1% formic acid
Reported property: RP-LC retention time (s)

Check out these entries, answers already filled in.
Cn1cc2c3c(cccc31)CN(C(=O)c1ccc(Cl)cc1)CC2: 988
c1ccc(CN2CCc3c(sc4ncnc(N5CCOCC5)c34)C2)cc1: 740

P: CCCNC(=O)C1CCN(c2ccc(SCC(=O)Nc3c(C)cc(C)cc3C)nn2)CC1
Q: Brc1cccc(-c2nnc(Cc3nc(-c4ccc5c(c4)OCO5)no3)o2)c1
Could you please tell me which of these two has the higher RP-LC retention time: P or Q ? Bench note: the answer is the label of the chosen record. Q

###

# Assay overview: gradient 5% acetonitrile 3 min, to 50% in 2 min, to 85% in 15 min, held 3 min, 100 µL/min
# Stated conditions: column: Zorbax Extend-C18 2.1 x 50 mm; eluents: water / acetonitrile, 0.1% formic acid
Reported property: RP-LC retention time (s)

Cc1ccc(-c2cnn(CC(=O)Nc3ccc(Br)cc3)c(=O)n2)cc1: 907
O=C(CC1CCCC1)Nc1ccc(N2CCN(C3CCCC3)C2=O)nc1: 801
O=C1CCCCC(C(=O)Nc2cccc(Cl)c2)N1 (stereo not given): 712
Cc1ccccc1CNC(=O)C1CCN(S(=O)(=O)c2c(C)[nH]c(C)c2C(=O)N2CCCC2)CC1: 727
COc1ncc(C(=O)N2CCN(c3ccc(F)cc3)CC2)cn1: 735
COCc1noc([C@@H]2CC(F)(F)CN2C(=O)c2c(C)noc2C)n1: 705
CCOC(=O)c1ccccc1NC(=O)CSc1ccc(-c2ccccn2)nn1: 906
COc1ccc(CNC(=O)CSc2nnc(-c3ccccc3)n2-n2cccc2)cc1: 775
Cc1nc(-c2ccc(C)c(S(=O)(=O)NCCN(C)C)c2)cs1: 612
CCOC(=O)c1csc(NC(=O)CCS(=O)(=O)c2ccc(OC)cc2)n1: 700
